Where do these numbers come from? They come from PubChem BioAssay (NCI).

System: M14 melanoma
Experimental Details: NCI tumour cell line growth inhibition, 48 h
Property Name: TGI

QUERY: What value of TGI has been recorded for this entry: `C=CCSc1nn(CC=C)cc2ncnc1-2`
RESULT: > 100 µM

QUERY: Which TGI is listed for `O=C(N/N=C/c1cc2ccccc2c2ccccc12)c1cc(O)c(O)c(O)c1` ?
RESULT: 18.2 µM

QUERY: Looking for the measured TGI of CC1=CCC2(C#N)CCC1C2=O (stereo unspecified) , can you help?
RESULT: > 100 µM

QUERY: I am curious: what TGI value has been reported for `N#Cc1c(N2CCOCC2)ncn(-c2ccccc2)c1=O` ?
RESULT: > 100 µM

QUERY: Dear colleague, I am looking for the recorded TGI of the following molecule: `O=S(=O)(Nc1ccccc1S(=O)(=O)c1ccccc1)c1ccccc1`
RESULT: > 100 µM

QUERY: Tell me the measured TGI of `O=C1c2c(Br)sc(Br)c2[C@H]2NC(=S)O[C@@H]12` , please.
RESULT: 30.5 µM

---

System: HCT-116 colon
Experimental Details: NCI tumour cell line growth inhibition, 48 h
I'd be grateful if you could share measured TGI for these entries.

QUERY: GET /values?readout=TGI&item= COc1ccc(OC)c(C2CCc3cnc4nc(N)nc(N)c4c3C2)c1 (stereo not given)
RESULT: > 100 µM

QUERY: Reported TGI, compound COC(=O)C(Cc1ccccc1)NS(=O)(=O)c1ccc(-c2c3nc(c(-c4ccc(S(=O)(=O)NC(Cc5ccccc5)C(=O)OC)cc4)c4ccc([nH]4)c(-c4ccc(S(=O)(=O)NC(Cc5ccccc5)C(=O)OC)cc4)c4nc(c(-c5ccc(S(=O)(=O)NC(Cc6ccccc6)C(=O)OC)cc5)c5ccc2[nH]5)C=C4)C=C3)cc1 (stereo not given) : ____
RESULT: > 100 µM

QUERY: Return reported TGI; argument: `Cc1ccc(N2C(=O)/C(=c3\s/c(=C(/N)O)c(=N)n3-c3ccccc3)SC2=S)cc1`
RESULT: > 100 µM

QUERY: Entry `C=CCC1(O)c2cccc(O)c2C(=O)c2c(O)cccc21` : reported TGI = ?
RESULT: 57.7 µM

QUERY: Need TGI, item `O=[N+]([O-])c1ccc2nc(N/N=C/c3ccc(O)cc3)sc2c1`
RESULT: > 100 µM

QUERY: So what does the record say about TGI for C=C1CC(OC)(C(O)C(=O)N[C@H]2OCO[C@H]3C2O[C@H](C[C@@H](CO)OC)C(C)(C)C3OC)O[C@H](C)[C@@H]1C (stereo not given in full) ?
RESULT: < 0.00932 µM

QUERY: Returns the measured TGI for the input compound. Input: `Cc1cc2c3c(ccc4ncc(c43)CN2c2ccc(NS(C)(=O)=O)cc2)[nH]1`
RESULT: 44.1 µM

QUERY: Bench note: what TGI did `Nc1nc(Cl)cc(Nc2ccc3c(c2)CCC3)n1` show?
RESULT: > 100 µM

QUERY: Endpoint output: TGI of `CCCNc1[nH]c(C(C)=O)c(N)c1C(=S)Nc1ccccc1` . Value?
RESULT: > 100 µM

QUERY: Entry NC(C(=O)O)C(N)C(=O)O (stereo not given) : reported TGI = ?
RESULT: > 100 µM

QUERY: For the compound shown here, `O=C(O)/C(O)=C1/C=C(c2ccccc2)c2ccccc21` , give the reported TGI.
RESULT: 37.6 µM

QUERY: Bench note: what TGI did `Cc1ccc(NC2=C(Cl)C(=O)c3nc(C)ccc3C2=O)cc1` show?
RESULT: 2.68 µM

QUERY: Could you tell me which TGI is on file for `Cc1ccc(C(=O)/C=C/c2ccccc2Cl)cc1` ?
RESULT: 25.6 µM

QUERY: Value lookup for TGI; key = CC(C)(C)OC(=O)C(C1NC(C(=O)O)C(C)(C)S1)N1C(=O)c2ccccc2C1=O (stereo not given)
RESULT: > 100 µM

QUERY: Query (compound): `Nc1nc(Nc2ccc(Cl)cc2)sc1C(=O)c1cc2ccccc2oc1=O` ; field requested: TGI
RESULT: > 100 µM

QUERY: Name the recorded TGI for `O=C(Oc1ccc([N+](=O)[O-])cc1)N1CCC(C(O)(c2ccc3c(c2)OCO3)c2ccc3c(c2)OCO3)CC1` .
RESULT: > 100 µM

QUERY: Dear colleague, I am looking for the recorded TGI of the following compound: OC[C@H]1CC(c2nn[nH]n2)[C@H](O)[C@@H]1O (stereo not given in full)
RESULT: > 100 µM

QUERY: Name the recorded TGI for `C/C=C/C=C/[C@H]1Cc2cc(O)cc(O)c2O1` .
RESULT: > 100 µM

QUERY: Name the reported TGI value associated with the compound `COc1cc2c(cc1OC)-c1cc3ccccc3c(=O)n1CCC2`
RESULT: > 38.6 µM

QUERY: Which TGI reading was recorded for the compound Oc1cccc(C2SCc3nc4ccccc4n32)c1 (stereo not given) ?
RESULT: > 100 µM
